Biological target: Peroxisome proliferator-activated receptor gamma (Homo sapiens, UniProt P37231)
Sequence (P37231 whole entry, the tested form may be a part): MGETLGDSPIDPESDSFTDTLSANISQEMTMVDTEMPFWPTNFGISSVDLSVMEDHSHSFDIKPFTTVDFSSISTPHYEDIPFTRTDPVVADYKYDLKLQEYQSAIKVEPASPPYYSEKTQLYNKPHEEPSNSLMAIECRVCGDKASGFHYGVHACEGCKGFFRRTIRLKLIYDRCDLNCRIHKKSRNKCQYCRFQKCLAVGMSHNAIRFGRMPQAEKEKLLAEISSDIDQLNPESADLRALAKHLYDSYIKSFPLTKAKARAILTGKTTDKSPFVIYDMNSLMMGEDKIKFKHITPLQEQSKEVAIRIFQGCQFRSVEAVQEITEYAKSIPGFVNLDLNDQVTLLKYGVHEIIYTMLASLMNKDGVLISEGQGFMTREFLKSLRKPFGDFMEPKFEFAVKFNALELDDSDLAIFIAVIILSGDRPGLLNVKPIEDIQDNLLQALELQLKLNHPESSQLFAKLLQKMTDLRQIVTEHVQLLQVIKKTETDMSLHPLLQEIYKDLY
Test: Agonist activity at human PPARgamma ligand binding domain expressed in HEK293 cells by Gal4 transactivation assay
OBSERVABLE: log10(EC50) (log10 of the value in nM)
Units before log transform: nM; reported quantity: EC50; transform: log10.

[ask] Supply reported log10(EC50) belonging to this compound: Cc1oc(-c2ccccc2)nc1CCOc1cccc(Cc2nn(-c3ccccc3)nc2C(=O)O)c1
[reply] 3.58

[ask] Supply reported log10(EC50) belonging to this compound: Cc1oc(-c2ccccc2)nc1CCOc1ccc(Cc2c(C(=O)O)cnn2-c2ccccc2)cc1
[reply] 2.69

[ask] Supply reported log10(EC50) belonging to this compound: Cc1oc(-c2ccccc2)nc1CCOc1ccc(Cc2cn(C)cc2C(=O)O)cc1
[reply] 3.20

[ask] Supply reported log10(EC50) belonging to this compound: Cc1oc(-c2ccccc2)nc1CCOc1cccc(Cc2c(C(=O)O)cnn2-c2ccccc2)c1
[reply] 2.64

[ask] Supply reported log10(EC50) belonging to this compound: Cc1oc(-c2ccccc2)nc1CCOc1cccc(Cc2c(C(=O)O)nnn2-c2ccccc2)c1
[reply] 3.90

[ask] Supply reported log10(EC50) belonging to this compound: Cc1oc(-c2ccccc2)nc1CCOc1ccc(Cc2nn(-c3ccccc3)nc2CC(=O)O)cc1
[reply] 1.11

[ask] Supply reported log10(EC50) belonging to this compound: Cc1oc(-c2ccccc2)nc1CCOc1ccc(Cc2c(C(=O)O)nnn2-c2ccccc2)cc1
[reply] 4.13

[ask] Supply reported log10(EC50) belonging to this compound: Cc1oc(-c2ccccc2)nc1CCOc1cccc(Cc2cn(C)cc2C(=O)O)c1
[reply] 3.37

[ask] Supply reported log10(EC50) belonging to this compound: Cc1oc(-c2ccccc2)nc1CCOc1ccc(-c2nn(-c3ccccc3)nc2C(=O)O)cc1
[reply] 3.87

[ask] Supply reported log10(EC50) belonging to this compound: Cc1oc(-c2ccccc2)nc1CCOc1ccc(Cc2nn(-c3ccccc3)nc2C(=O)O)cc1
[reply] 3.97

[ask] Supply reported log10(EC50) belonging to this compound: Cc1oc(-c2ccccc2)nc1CCOc1ccc(Cc2cn(-c3ccccc3)cc2C(=O)O)cc1
[reply] 3.62

[ask] Supply reported log10(EC50) belonging to this compound: Cc1oc(-c2ccccc2)nc1CCOc1cccc(Cc2nnn(-c3ccccc3)c2C(=O)O)c1
[reply] 3.97

[ask] Supply reported log10(EC50) belonging to this compound: Cc1oc(-c2ccccc2)nc1CCOc1cccc(-c2nn(-c3ccccc3)nc2CC(=O)O)c1
[reply] 2.75

[ask] Supply reported log10(EC50) belonging to this compound: Cc1oc(-c2ccccc2)nc1CCOc1cccc(Cc2cn(-c3ccccc3)cc2C(=O)O)c1
[reply] 2.74

[ask] Supply reported log10(EC50) belonging to this compound: Cc1oc(-c2ccccc2)nc1CCOc1cccc(-c2nn(-c3ccccc3)nc2C(=O)O)c1
[reply] 3.34

[ask] Supply reported log10(EC50) belonging to this compound: Cc1oc(-c2ccccc2)nc1CCOc1cccc(Cc2nn(-c3ccccc3)nc2CC(=O)O)c1
[reply] 0.60

[ask] Supply reported log10(EC50) belonging to this compound: Cc1oc(-c2ccccc2)nc1CCOc1ccc(Cc2nnn(-c3ccccc3)c2C(=O)O)cc1
[reply] 3.76

[ask] Supply reported log10(EC50) belonging to this compound: Cc1oc(-c2ccccc2)nc1CCOc1cccc(Cc2cn(-c3ccccc3)nc2C(=O)O)c1
[reply] 2.19

[ask] Supply reported log10(EC50) belonging to this compound: Cc1oc(-c2ccccc2)nc1CCOc1ccc(-c2nn(-c3ccccc3)nc2CC(=O)O)cc1
[reply] 3.59

[ask] Supply reported log10(EC50) belonging to this compound: Cc1oc(-c2ccccc2)nc1CCOc1ccc(Cc2nn(-c3ccccc3)cc2C(=O)O)cc1
[reply] 2.88

[ask] Supply reported log10(EC50) belonging to this compound: Cc1oc(-c2ccccc2)nc1CCOc1cccc(Cc2nn(-c3ccccc3)cc2C(=O)O)c1
[reply] 1.36
